Target under test: T1, recombinant human IGF-II (Insulin-like Growth Factor II) (human, UniProt P01344 25-91, biotinylated (Biotinyl-IGF-II, GroPep) where immobilised in SPR, site not stated; not biotinylated in ITC and as SPR analyte)
T1 construct: also called IGF2; IGF-2
T1 sequence (P01344 25-91 limits assumed): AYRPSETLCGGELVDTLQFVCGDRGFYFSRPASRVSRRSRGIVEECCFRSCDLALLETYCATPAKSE
Procedure details: SPR, IGF-II immobilised, kinetic fit
Experimental: Kinetic analysis by Surface Plasmon Resonance (SPR) was conducted on a BIAcore 3000 biosensor (BIAcore, Uppsala, Sweden) at 25° C. in HBS-EP (10 mM HEPES, pH 7.4, 150 mM NaCl, 3 mM EDTA, 0.005% surfactant P20) at a flow rate of 40 μl/min. […] Kinetic parameters were determined by global fitting of sensorgrams to a two-state (conformational change) binding model using BIAevaluation software version 4.0.1. […]
Experimental readout: koff
Please state the number and follow it with the unit.

Before answering, review these 3 worked examples.
1. IGF2R domain 11 K1545A (amino acids 1511-1650, C-terminal His6 tag, from Pichia pastoris) (receptor) NEHDDCQVTNPSTGHLFDLSSLSGRAGFTAAYSEAGLVYMSICGENENCPPGVGACFGQTRISVGKANKRLRYVDQVLQLVYKDGSPCPSKSGLSYKSVISFVCRPEAGPTNRPMLISLDKQTCTLFFSWHTPLACEQATHHHHHH; 0.078 s⁻¹
2. IGF2R domain 11 E1544A (amino acids 1511-1650, C-terminal His6 tag, from Pichia pastoris) (receptor) NEHDDCQVTNPSTGHLFDLSSLSGRAGFTAAYSAKGLVYMSICGENENCPPGVGACFGQTRISVGKANKRLRYVDQVLQLVYKDGSPCPSKSGLSYKSVISFVCRPEAGPTNRPMLISLDKQTCTLFFSWHTPLACEQATHHHHHH; 0.033 s⁻¹
3. wild type IGF2R domain 11 (amino acids 1511-1650) with C-terminal His6 tag, from Pichia pastoris (receptor, also called WT; wild type domain 11) NEHDDCQVTNPSTGHLFDLSSLSGRAGFTAAYSEKGLVYMSICGENENCPPGVGACFGQTRISVGKANKRLRYVDQVLQLVYKDGSPCPSKSGLSYKSVISFVCRPEAGPTNRPMLISLDKQTCTLFFSWHTPLACEQATHHHHHH; 0.053 s⁻¹

Task item: Find the recorded koff belonging to IGF2R domain 11 Q1569A (amino acids 1511-1650, C-terminal His6 tag, from Pichia pastoris) (receptor) NEHDDCQVTNPSTGHLFDLSSLSGRAGFTAAYSEKGLVYMSICGENENCPPGVGACFGATRISVGKANKRLRYVDQVLQLVYKDGSPCPSKSGLSYKSVISFVCRPEAGPTNRPMLISLDKQTCTLFFSWHTPLACEQATHHHHHH and report it.
Reply: 0.069 s⁻¹

Task item: // same read-out, input: IGF2R domain 11 T1570A (amino acids 1511-1650, C-terminal His6 tag, from Pichia pastoris) (receptor) NEHDDCQVTNPSTGHLFDLSSLSGRAGFTAAYSEKGLVYMSICGENENCPPGVGACFGQARISVGKANKRLRYVDQVLQLVYKDGSPCPSKSGLSYKSVISFVCRPEAGPTNRPMLISLDKQTCTLFFSWHTPLACEQATHHHHHH
Reply: 0.281 s⁻¹

Task item: // same read-out, input: IGF2R domain 11 Y1542A (amino acids 1511-1650, C-terminal His6 tag, from Pichia pastoris) (receptor) NEHDDCQVTNPSTGHLFDLSSLSGRAGFTAAASEKGLVYMSICGENENCPPGVGACFGQTRISVGKANKRLRYVDQVLQLVYKDGSPCPSKSGLSYKSVISFVCRPEAGPTNRPMLISLDKQTCTLFFSWHTPLACEQATHHHHHH
Reply: 0.169 s⁻¹

Task item: // same read-out, input: IGF2R domain 11 S1596A (amino acids 1511-1650, C-terminal His6 tag, from Pichia pastoris) (receptor) NEHDDCQVTNPSTGHLFDLSSLSGRAGFTAAYSEKGLVYMSICGENENCPPGVGACFGQTRISVGKANKRLRYVDQVLQLVYKDGAPCPSKSGLSYKSVISFVCRPEAGPTNRPMLISLDKQTCTLFFSWHTPLACEQATHHHHHH
Reply: 0.079 s⁻¹

Task item: // same read-out, input: IGF2R domain 11 S1543A (amino acids 1511-1650, C-terminal His6 tag, from Pichia pastoris) (receptor) NEHDDCQVTNPSTGHLFDLSSLSGRAGFTAAYAEKGLVYMSICGENENCPPGVGACFGQTRISVGKANKRLRYVDQVLQLVYKDGSPCPSKSGLSYKSVISFVCRPEAGPTNRPMLISLDKQTCTLFFSWHTPLACEQATHHHHHH
Reply: 0.096 s⁻¹
